Entry source: patent US10294256B2

Tested on: IFNα stimulated Kit225 T cells with STAT-dependent luciferase reporter
Assay: Kit225 T Cell Assay, IFNα stimulated STAT-dependent luciferase reporter
Type: cell-based, human
Settings: Homo sapiens, KIT225, read-out: IFN[…] Kit 225 IC50
reported property: pIC50
Worth noting: pIC50 values are minus log10 of concentrations stated in mol/L.

Problem: What pIC50 appears in the records for this molecule with IFNα stimulated Kit225 T cells with STAT-dependent luciferase reporter? [2H]C([2H])([2H])NC(=O)c1nnc(Nc2cccc(F)n2)cc1Nc1ncccc1P(C)(C)=O [Example 22]
Solution: 7.82

* * *

Tested on: IFNα stimulated Kit225 T cells with STAT-dependent luciferase reporter
Assay: Kit225 T Cell Assay, IFNα stimulated STAT-dependent luciferase reporter
Assay type: cell-based, human
Conditions: KIT225; 200 U/mL human recombinant IFNα, 5-6 hours, luciferase reporter; read-out: IFN[…] Kit 225 IC50
The following compounds are listed with their measured log10 IC50 values.
Hello, just confirming the data are log10 of IC50 with units of µM.

Reference set (3 entries):
compound	reported property	test result
[2H]C([2H])([2H])NC(=O)c1nnc(NC(=O)C2CC2(C)C)cc1Nc1ncccc1P(C)(C)=O (stereo not drawn) [Example 28]	log10 IC50	0.80
[2H]C([2H])([2H])NC(=O)c1nnc(Nc2cc(C3CC3)ccn2)cc1Nc1ccccc1P(C)(C)=O [Example 1]	log10 IC50	-0.62
[2H]C([2H])([2H])NC(=O)c1nnc(Nc2ccc(C3CC3)cn2)cc1Nc1ncccc1P(C)(C)=O [Example 17]	log10 IC50	-1.37

Problem: What log10 IC50 appears in the records for this compound with IFNα stimulated Kit225 T cells with STAT-dependent luciferase reporter? [2H]C([2H])([2H])NC(=O)c1nnc(Nc2cc(C3CC3)ccn2)cc1Nc1ncccc1P(C)(C)=O [Example 12]
Solution: -0.84

Problem: What log10 IC50 appears in the records for this compound with IFNα stimulated Kit225 T cells with STAT-dependent luciferase reporter? [2H]C([2H])([2H])NC(=O)c1nnc(Nc2ccc(C3CC3)cn2)cc1Nc1ccccc1P(C)(C)=O [Example 5]
Solution: -0.47

Problem: What log10 IC50 appears in the records for this compound with IFNα stimulated Kit225 T cells with STAT-dependent luciferase reporter? [2H]C([2H])([2H])NC(=O)c1nnc(Nc2ccc(C(C)(C)N)cn2)cc1Nc1ncccc1P(C)(C)=O [Example 35]
Solution: 0.36

* * *

The following molecules are listed with their measured pIC50 values.
System: IFNα stimulated Kit225 T cells with STAT-dependent luciferase reporter
Experiment: Kit225 T Cell Assay, IFNα stimulated STAT-dependent luciferase reporter
Assay type: cell-based, human
Conditions: KIT225; 200 U/mL human recombinant IFNα, 5-6 hours, luciferase reporter; read-out: IFN[…] Kit 225 IC50
Worth noting: pIC50 values are minus log10 of concentrations stated in mol/L.

[2H]C([2H])([2H])NC(=O)c1nnc(Nc2ccc(N3CCOCC3)cn2)cc1Nc1ncccc1P(C)(C)=O 6.58
[2H]C([2H])([2H])NC(=O)c1nnc(Nc2ccc(F)c(C)n2)cc1Nc1ncccc1P(C)(C)=O 7.27
[2H]C([2H])([2H])NC(=O)c1nnc(Nc2ccc(C)c(C)n2)cc1Nc1ncccc1P(C)(C)=O 7.64
[2H]C([2H])([2H])NC(=O)c1nnc(Nc2cc(Cl)c(C(C)(C)O)cn2)cc1Nc1ncccc1P(C)(C)=O 6.04

Could you now look at the following molecule, please?
Problem: Fill in the blank: the reported pIC50 of [2H]C([2H])([2H])NC(=O)c1nnc(Nc2ccc(N3CCOCC3)cn2)cc1Nc1ccccc1P(C)(C)=O is ____.
Solution: 6.10
